Catalogue of self-splicing fitness (ln) readings, one per entry.
Assay: self-splicing fitness, log relative to wild type (ln ratio); higher = more splicing; Tetrahymena group I intron in knt gene, E. coli kanamycin selection, DiMSum; sequences stand for … in CUCUCU…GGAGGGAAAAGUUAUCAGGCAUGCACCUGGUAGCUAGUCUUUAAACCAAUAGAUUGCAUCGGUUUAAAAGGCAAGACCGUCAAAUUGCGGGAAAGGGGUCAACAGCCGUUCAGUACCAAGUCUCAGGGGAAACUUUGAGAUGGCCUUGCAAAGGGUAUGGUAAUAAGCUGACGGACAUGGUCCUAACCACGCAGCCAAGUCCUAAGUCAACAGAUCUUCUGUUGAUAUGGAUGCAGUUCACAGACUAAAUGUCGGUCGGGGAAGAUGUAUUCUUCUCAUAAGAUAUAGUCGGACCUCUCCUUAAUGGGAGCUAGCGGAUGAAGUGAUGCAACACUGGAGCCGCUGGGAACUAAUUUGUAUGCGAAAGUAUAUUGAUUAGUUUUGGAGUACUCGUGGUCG;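 note: selection with 25 µg/mL kanamycin versus none on LB agar overnight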
Details: 37 °C
Quick one: just the number, no unit, thanks!

Some solved entries appear below for comparison.
Exercise: May I ask what self-splicing fitness (ln) has been recorded for ACUCAGCAAUAUUACGCCAA ?
Key: -2.5

Exercise: One more sequence: CUCUAGCAAUAUUACGAAUC
Key: -3.69

Exercise: One more sequence: AACAAGCAAUAUUACGCGUG
Key: -0.814

Exercise: One more sequence: UAGCAGCAAUAUUACGCUGC
Key: -2.2

Exercise: One more sequence: CGGUAGCAAUAUUACGAGGA
Key: -1.75

Exercise: One more sequence: UCGUAGCAAUAUUACGACUC
Key: -1.34

Exercise: One more sequence: AUCAAGCAAUAUUACGGGCA
Key: -0.95

Could you now look at the following sequence, please?
Exercise: May I ask what self-splicing fitness (ln) has been recorded for UUAUAGCAAUAUUACGCGAC ?
Key: -1.98
